# experimental-system: cloned human M2 receptor (human Muscarinic receptor subtype 2) (Homo sapiens)
# Construct: purchased Perkin-Elmer RBHM2M; host or cells: Chinese hamster ovary cells (CHO) membranes
# Sequence (P08172 whole entry): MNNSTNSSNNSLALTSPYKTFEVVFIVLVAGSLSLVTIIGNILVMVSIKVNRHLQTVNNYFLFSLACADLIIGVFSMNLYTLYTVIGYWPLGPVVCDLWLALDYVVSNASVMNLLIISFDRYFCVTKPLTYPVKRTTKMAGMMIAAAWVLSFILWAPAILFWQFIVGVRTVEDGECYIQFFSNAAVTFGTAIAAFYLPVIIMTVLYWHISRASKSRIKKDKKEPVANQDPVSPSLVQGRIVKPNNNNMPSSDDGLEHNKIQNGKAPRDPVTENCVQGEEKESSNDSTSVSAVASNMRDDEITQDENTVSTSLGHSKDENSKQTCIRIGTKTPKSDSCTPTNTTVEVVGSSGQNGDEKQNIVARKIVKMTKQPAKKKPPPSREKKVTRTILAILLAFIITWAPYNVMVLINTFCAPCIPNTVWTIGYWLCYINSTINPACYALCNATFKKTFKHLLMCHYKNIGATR
# method-description: hM2 receptor GTPγS binding
# Format: biochemical
# assay-setup: CHO cell membranes expressing hM2; [35S]GTPγS binding; read-out: hM2 EC50
// assign Satisfied if EC50 falls strictly below 2000 nM, else Not satisfied (ties count as Not satisfied)

Answered examples (2):
[[record]]
compound = "Cc1ccc2[nH]c(=O)n(C3CCN(C4(C)CCN(C(=O)OCCF)C4)CC3)c2c1 (single isomer, unassigned) [Example 28]"
category = "Not satisfied"

[[record]]
compound = "CC1(N2CCC(n3c(=O)[nH]c4ccccc43)CC2)CCN(C(=O)OCCF)C1 (single isomer, unassigned) [Example 32]"
category = "Not satisfied"


# TODO verify EC50 < 2000 nM strictly for this compound: COC(=O)N1CCC(C)(N2CCC(n3c(=O)[nH]c4ccc(C)cc43)CC2)C1 (single isomer, unassigned) [Example 45] Satisfied

# TODO verify EC50 < 2000 nM strictly for this compound: CC#CCOC(=O)N1CCC(C)(N2CCC(n3c(=O)[nH]c4ccccc43)CC2)C1 (single isomer, unassigned) [Example 34] Satisfied

# TODO verify EC50 < 2000 nM strictly for this compound: COC(=O)N1CCC(C)(N2CCC(n3c(=O)[nH]c4ccc(C)cc43)CC2)C1 (single isomer, unassigned) [Example 47] Satisfied
